We begin with a simple list: items and their reported pKi.
# target_system: recombinant human KLK5 (human) (UniProt Q9Y337)
# Sequence (Q9Y337 67-293): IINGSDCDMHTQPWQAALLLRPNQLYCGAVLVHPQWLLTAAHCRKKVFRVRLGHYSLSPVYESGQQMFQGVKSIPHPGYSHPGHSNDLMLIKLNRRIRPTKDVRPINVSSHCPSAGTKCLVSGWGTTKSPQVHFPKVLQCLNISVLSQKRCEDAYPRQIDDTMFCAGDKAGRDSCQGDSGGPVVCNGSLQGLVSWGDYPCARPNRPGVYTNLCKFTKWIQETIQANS
# measurement_notes: Kiapp, KLK5 0.5-0.0625 nM, Z-VPR-pNA
pKi: −log10 of the molar value.
outcome_measure: pKi

binder	relation_qualifier	result_number
9B6 (antibody, V domains shown) VH: QSVKESEGGLFKPTDNLTLTCTVSGFSLSNYGVTWVRQAPGNGLEYIGFIGSGGSAYYASWAKSRSTITRNTNLNTVTLKMTSLTAADTATYFCARDDVGGGKSLDIWGPGTLVTVSS VL: NIVMTQTPASVEVAVGGTVVIKCQASQNIGDYLSWYQQKPGQRPKLLIYSASTLASGVPSRFKGSGSGTQFTLTISDLECADAATYYCHQDYTSNDVENTFGGGTEVVVK	=	9.73
10H3 (antibody, V domains shown) VH: QSVKESEGGLIKPTDTLTLTCTVSGFSLSTFAINWVRQAPGNGLEWIGAIGRGGSAYYASWAKSRSTITKNTNLNTVTLKMTRPTAADTATYFCARENAGSGWGELDIWGPGTLVTVSS VL: AYEMTQTPASVEVAVGGTVTINCQASESISSDLAWYQQKPGQRPKLLIYAASTLASGVPSRFKGSGSGTEFTLSISGVQCADAATYYCQQGYTWNNVDNVFGGGTEVVVK	=	9.29
3-3F5 (antibody, V domains shown) VH: QSVKESEGGLFKPTDTLTLTCTVSGFSLNDYGVSWVRQAPGNGLEWIGAIGSSGVAWYANWAKGRSTITRNTNLNTVTLKMASLTAADTATYFCARDRDYGYRADDATSGMDLWGPGTLVTVSS VL: AYDMTQTPASVEAAVGGTVTIKCQASESIGNALAWYQQKPGQPPKLLIYDASDLASGVPSRFKGSGSGTQFTLTISGVECADAATYYCQQGDSHNNVDNIFGGGTEVVVK	>	11.00
